compounds and their reported composite z-score
test.target: Dickkopf-related protein 1 (Homo sapiens) (UniProt O94907)
Sequence (O94907 whole entry, looked up): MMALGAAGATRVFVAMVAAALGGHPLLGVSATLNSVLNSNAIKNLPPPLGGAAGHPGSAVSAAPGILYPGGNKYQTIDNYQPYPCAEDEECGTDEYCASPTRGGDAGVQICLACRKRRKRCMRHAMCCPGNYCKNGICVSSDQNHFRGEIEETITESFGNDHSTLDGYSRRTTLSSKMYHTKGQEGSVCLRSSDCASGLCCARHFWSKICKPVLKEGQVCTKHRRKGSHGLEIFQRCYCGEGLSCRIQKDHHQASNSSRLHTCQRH
assay.explanation: DKK1 binders on small-molecule microarrays, primary screen, biochemical, small-molecule microarray, 635 nm fluorescence scan (AID 1106);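 also: score merges emission near 667 nm with signal to noise over three replicate slides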
test.parameters: DKK1 binding, higher = more signal
The answer should be written as a number, with no unit following it.

{"columns": ["compound", "composite z-score"],
 "data": [
  ["O=C1OCC=C[C@H]2OC34C=CCN(c5ccc6ccccc6c5)C(=O)[C@H]3N(CCCO)C(=O)[C@@H]4[C@@H]12 (stereo partly drawn)", -1.06],
  ["COc1ccc(C(O)C2C=CC3C(=O)N(C)C(=O)C3N2Nc2ccccc2)cc1OCc1ccccc1 (stereo not drawn)", -0.0523],
  ["COC(=O)[C@@]1(Cc2ccccc2)[C@H]2c3cc(C(=O)N(C)C)n(Cc4cc(C)n(C)n4)c3C[C@H]2CN1C(=O)c1ccccc1", -0.72],
  ["NCCCCCNC(=O)[C@H]1C[C@H]2C(=O)NCC(=O)N2[C@H]1c1cccc(OCCO)c1", 0.912],
  ["CC(C)NC(=O)[C@@]1(Cc2ccccc2I)c2ccccc2C(=O)N(Cc2ccccc2)[C@H]1c1ccc(CO)cc1", 0.0622]
]}

Record `CC(=CC1CCCCC1)[C@@H](NC(=O)c1ccc(C(F)(F)F)cc1)c1ccc(-c2ccccc2)cc1` , field composite z-score: -0.0349

Per the records, this compound ( O=C1OCCC/C=C\[C@H]2OC34C=CCN(Cn5nnc6ccccc65)C(=O)[C@H]3N(CCCCCO)C(=O)[C@@H]4C12 (stereo partly drawn) ) has composite z-score equal to -1.45

Lookup result for N#Cc1ccc(NN2C(C(O)c3ccc([N+](=O)[O-])cc3)C=CC3C(=O)N(c4ccccc4)C(=O)C32)cc1 (stereo not drawn) ; measured composite z-score: -0.392
